- protocol.text: Pharmacokinetics and absolute bioavailability in Sprague Dawley rats, IV and SC 4 mg/kg (LC/MS MS)
- Type: in vivo, rat
- condition.label: rat, in vivo, iv, rat, read-out: AUC(0-∝)
Where no end group is shown, it is not given here.
attribute.measured: AUC (ng·h/mL)

INSERT INTO measurements (substance, data_value) VALUES
  ('IGLHDPTQGTEPNG [HIP2]', 442),
  ('Ac-IGLHDPTQGTEPNG-NH2 [HIP2B]', 2230);

* * *

We begin with a simple list: items and their reported Cmax.
- protocol.text: Pharmacokinetics and absolute bioavailability in Sprague Dawley rats, IV and SC 4 mg/kg (LC/MS MS)
- Format: in vivo, rat
- condition.label: in vivo, IV, rat
Where no end group is shown, it is not given here.
attribute.measured: Cmax (ng/mL)

INSERT INTO measurements (substance, data_value) VALUES
  ('Ac-IGLHDPTQGTEPNG-NH2 [HIP2B]', 8240),
  ('IGLHDPTQGTEPNG [HIP2]', 29);

Ref: patent US8816047B2
